Can you tell me pEC50 for the items I'm about to list?
Target: Nucleotide-binding oligomerization domain-containing protein 2 (Homo sapiens)
Sequence (Q9HC29 whole entry, the tested form may be a part): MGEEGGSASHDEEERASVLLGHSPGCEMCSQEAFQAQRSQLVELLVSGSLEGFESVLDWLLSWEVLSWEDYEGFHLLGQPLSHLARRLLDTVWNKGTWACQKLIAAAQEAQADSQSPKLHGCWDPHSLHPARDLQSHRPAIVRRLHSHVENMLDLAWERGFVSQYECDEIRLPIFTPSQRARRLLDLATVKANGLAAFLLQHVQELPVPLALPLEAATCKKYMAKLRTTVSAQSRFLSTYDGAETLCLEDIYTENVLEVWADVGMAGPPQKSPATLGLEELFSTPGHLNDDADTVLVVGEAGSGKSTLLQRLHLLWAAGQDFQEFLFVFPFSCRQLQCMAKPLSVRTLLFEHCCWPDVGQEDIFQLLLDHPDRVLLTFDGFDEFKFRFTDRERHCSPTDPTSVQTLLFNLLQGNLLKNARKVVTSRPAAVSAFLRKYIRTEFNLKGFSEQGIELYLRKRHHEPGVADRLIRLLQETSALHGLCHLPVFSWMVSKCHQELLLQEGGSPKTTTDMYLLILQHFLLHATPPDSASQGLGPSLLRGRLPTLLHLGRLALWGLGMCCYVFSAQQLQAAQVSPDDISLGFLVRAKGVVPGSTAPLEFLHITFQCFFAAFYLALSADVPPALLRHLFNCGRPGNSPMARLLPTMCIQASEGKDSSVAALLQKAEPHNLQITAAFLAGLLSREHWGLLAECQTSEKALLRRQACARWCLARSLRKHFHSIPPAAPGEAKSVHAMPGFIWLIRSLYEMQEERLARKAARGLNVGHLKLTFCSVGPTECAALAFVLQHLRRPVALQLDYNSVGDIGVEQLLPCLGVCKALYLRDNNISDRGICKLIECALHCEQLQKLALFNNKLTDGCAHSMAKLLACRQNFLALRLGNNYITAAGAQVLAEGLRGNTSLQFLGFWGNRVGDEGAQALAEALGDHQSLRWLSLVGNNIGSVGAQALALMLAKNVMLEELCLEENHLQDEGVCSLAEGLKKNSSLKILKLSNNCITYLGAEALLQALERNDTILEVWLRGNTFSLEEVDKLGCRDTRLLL
Experiment: Agonist activity at human NOD2 expressed in HEK-Blue cells assessed as induction of NF-kB transcriptional activity after 18 hrs by SEAP reporter gene assay
Reminder that pEC50 is minus the log10 of a molar concentration.

Task item: I'd like to know its pEC50. The compound in question is "CCOC(=O)CC[C@@H](NC(=O)[C@H](Cc1ccccc1)NC(=O)CNC(=O)[C@@H]1C[C@H]1c1ccccc1)C(=O)OCC"
Reply: 6.33

Task item: What about this compound? "CCOC(=O)CC[C@@H](NC(=O)[C@H](Cc1ccccc1)NC(=O)CNC(=O)/C=C/c1ccccc1)C(=O)OCC"
Reply: 6.41

Task item: Queued: CC(=O)N[C@H]1C(O)O[C@H](CO)[C@@H](O)[C@@H]1O[C@H](C)C(=O)N[C@@H](C)C(=O)N[C@H](CCC(=O)O)C(N)=O (some centres not stated) [MURAMYL DIPEPTIDE]
Reply: 7.04

Task item: Also CCOC(=O)CC[C@@H](NC(=O)[C@@H](NC(=O)CNC(=O)C1CC1c1ccc(F)c(F)c1)C(C)C)C(=O)OCC (some centres not stated) , if possible.
Reply: 6.61

Task item: How about this compound: "CCOC(=O)CC[C@@H](NC(=O)[C@H](Cc1ccccc1)NC(=O)CNC(=O)/C=C/c1ccc(O)c(OC)c1)C(=O)OCC"
Reply: 6.92

Task item: Note, next up: CCOC(=O)CC[C@@H](NC(=O)[C@H](Cc1ccccc1)NC(=O)CNC(=O)C1CC1c1ccc(F)c(F)c1)C(=O)OCC (some centres not stated)
Reply: 6.56

Task item: What do we get for "CCOC(=O)CC[C@@H](NC(=O)[C@H](Cc1ccccc1)NC(=O)CNC(=O)c1cc2ccc(-c3ccccc3)cc2[nH]1)C(=O)OCC" ?
Reply: 6.11

Task item: Now give it for "CCOC(=O)CC[C@@H](NC(=O)[C@@H](NC(=O)CNC(=O)/C=C/c1ccc(F)c(F)c1)C(C)C)C(=O)OCC" too.
Reply: 6.76

Task item: Also need "CCOC(=O)CC[C@@H](NC(=O)[C@@H](NC(=O)CNC(=O)/C=C/c1ccccc1)C(C)C)C(=O)OCC" , thanks.
Reply: 6.65

Task item: Next record, please: "CCOC(=O)CC[C@@H](NC(=O)[C@H](Cc1ccccc1)NC(=O)CNC(=O)/C=C/c1ccc(F)c(F)c1)C(=O)OCC"
Reply: 6.76

Task item: Another compound to check: "CCOC(=O)CC[C@@H](NC(=O)[C@H](C)NC(=O)CNC(=O)/C=C/c1ccc(O)c(OC)c1)C(=O)OCC"
Reply: 5.55

Task item: Consider next the compound "COc1cc(/C=C/C(=O)NCC(=O)N[C@H](C(=O)N[C@H](CCC(=O)O)C(=O)O)C(C)C)ccc1O" in the same way.
Reply: 5.16
